Test system: Wolbachia pipientis
Test name: Anti-Wolbachia Cell-Based Screen
Format: functional
Set-up: scale not given: in the data most compounds retested in dose-response had high values
Condition notes: 5 µM
About 13,000 (27%) of roughly 48,000 compounds showed an effect of 50% or more. This is one part of the list.
Percent Effect values by entry
Value type: Percent Effect

compound="COc1ccc(CNC2CCCc3nc(N(C)C)ncc32)c(OC)c1 (stereo not drawn)" value_type="Percent Effect" value_observed=113.1%
compound=COc1ccc(OC)c2c(C)cc(N(C)CCCO)nc12 value_type="Percent Effect" value_observed=19.89%
compound="Cc1nc(CN2CCN(CC3CCOC3)Cc3cccnc32)cs1.O=C(O)C(F)(F)F.O=C(O)C(F)(F)F.O=C(O)C(F)(F)F (stereo not drawn)" value_type="Percent Effect" value_observed=-0.3757%
compound=Cc1nc(CN2C(=O)C[C@@H]3[C@@H]2CCN3CC2CCOCC2)cs1.O=C(O)C(F)(F)F value_type="Percent Effect" value_observed=145.4%
compound="COc1ccc(OC)c(CNC2CCCc3nc(N(C)C)ncc32)c1 (stereo not drawn)" value_type="Percent Effect" value_observed=105.7%
compound=Cc1ccc(CN2CCc3onc(C(=O)NCCN(C)C)c3C2)o1.O=C(O)C(F)(F)F.O=C(O)C(F)(F)F value_type="Percent Effect" value_observed=74.07%
compound=O=C(Nc1cc(C(F)(F)F)c[nH]c1=O)N1CCCSCC1 value_type="Percent Effect" value_observed=-10.12%
compound=CCOc1c(OC)cc(/C=C/c2ncc(C(=O)NC)s2)cc1OC value_type="Percent Effect" value_observed=-0.7468%
compound="Cc1nc(CN2C(=O)C[C@H]3[C@H]2CCN3CC2CCOC2)cs1.O=C(O)C(F)(F)F (stereo partly drawn)" value_type="Percent Effect" value_observed=100.2%
compound=CC(C)OC[C@H]1CCC[C@]12CN(S(=O)(=O)c1cccs1)CCO2 value_type="Percent Effect" value_observed=-17.54%
compound="Cc1cc(C(=O)N(C)C(C)CC(C)C)on1 (stereo not drawn)" value_type="Percent Effect" value_observed=-13.06%
compound=CO[C@@H]1CCN(S(=O)(=O)c2cn(C)cn2)[C@H]1Cc1ccccc1 value_type="Percent Effect" value_observed=-1.543%
compound="O=C(NCC1CC1)C1CN(C(=O)c2cccc(Cl)c2)CC12CCOCC2 (stereo not drawn)" value_type="Percent Effect" value_observed=-0.2514%
compound="COc1ccc2c(c1)C(NCCc1ncc(C)s1)CCCO2 (stereo not drawn)" value_type="Percent Effect" value_observed=17.43%
compound="CC1CN(C(=O)Nc2cc(C(F)(F)F)c[nH]c2=O)CC(C)(C)O1 (stereo not drawn)" value_type="Percent Effect" value_observed=113.6%
compound=Cc1noc(CCCC(=O)Nc2cc(C(F)(F)F)c[nH]c2=O)n1 value_type="Percent Effect" value_observed=11.68%
compound=CCc1nc(CN(C)C(=O)NCc2cccc(NC(C)=O)c2)cs1 value_type="Percent Effect" value_observed=-8.024%
compound=COC[C@@H]1CCC[C@]12CN(S(=O)(=O)c1cccs1)CCO2 value_type="Percent Effect" value_observed=-10.75%
compound="CCn1ncc2c1CCCC2NCc1cc(Cl)c(OC)c(OC)c1 (stereo not drawn)" value_type="Percent Effect" value_observed=-1.567%
compound=CCN(CC)c1ccc(-c2nc(-c3cccc(OC)c3OC)no2)cn1 value_type="Percent Effect" value_observed=-1.328%
compound="COc1c(C)cc(S(=O)(=O)NCC2CNCCOC2)cc1C (stereo not drawn)" value_type="Percent Effect" value_observed=-7.949%
compound="CCn1ncc2c1CCCC2NCc1ccc(OC)c(C)c1 (stereo not drawn)" value_type="Percent Effect" value_observed=-3.93%
compound=CC1(C)CN(C(=O)Nc2cc(C(F)(F)F)c[nH]c2=O)CCO1 value_type="Percent Effect" value_observed=99.91%
compound=Cc1noc(C)c1CN(C)C(=O)c1cnc(C2CC2)nc1O value_type="Percent Effect" value_observed=-11.89%
compound=Fc1cccc(-n2nc(C3CC3)nc2CCn2cnnn2)c1 value_type="Percent Effect" value_observed=-8.194%
compound=COC(=O)c1cnc(/C=C/c2ccc(C(=O)O)cc2)s1 value_type="Percent Effect" value_observed=-4.44%
compound="COc1ccc(F)c(CNC2CCCc3nc(N(C)C)ncc32)c1 (stereo not drawn)" value_type="Percent Effect" value_observed=96.62%
compound="CC(O)C1CCN(C(=O)Nc2nc(-c3ccccc3)ns2)CC1 (stereo not drawn)" value_type="Percent Effect" value_observed=-6.98%
compound=COc1ncccc1CNC(=O)c1cc(F)cc(Br)c1 value_type="Percent Effect" value_observed=12.35%
compound=COC1CCN(C(=O)c2ccccc2NCc2cccnc2)CC1 value_type="Percent Effect" value_observed=112.6%
compound=CCCc1noc(CCC(=O)Nc2cc(C(F)(F)F)c[nH]c2=O)n1 value_type="Percent Effect" value_observed=-8.892%
compound=CCOc1cc(/C=C/c2ncc(C(=O)O)s2)cc(Br)c1O value_type="Percent Effect" value_observed=111.7%
compound=CC(C)C(=O)N1CCc2onc(C(=O)NCCN(C)C)c2C1.O=C(O)C(F)(F)F value_type="Percent Effect" value_observed=7.945%
